System: Renilla luciferase RNA
Experiment: Barcoded aptazyme variant library screen: un-cleaved Renilla luciferase RNA by barcode read counts, HEK293-T cells
Format: cell-based
Condition context: un-cleaved Renilla luciferase RNA by barcode read counts; with 1 mM theophylline (ON) over without theophylline (OFF); HEK293-T cells; triplicate
Measured metric: Fold change in RNA expression between the ON state and the OFF state
Give your answer as a number; write no unit.

Would you please look over these solved cases?
1. RA309 (nucleic acid, expressed or natural sequence) DNA: GCGCGAGAATACCAGCATCGTCTTGATGCCCTTGGAAGTCTTCCTGGATTCGCGGAAACGCGTACATCCAGCTGACGAGTCCCAAATAGGACGAAACGCGC    1.0
2. RA380 (nucleic acid, expressed or natural sequence) DNA: GCGCGTCCTGGATTCGCGGAAACGCCGAGAATACCAGCATCGTCTTGATGCCCTTGGAAGTCTCGGTACATCCAGCTGACGAGTCCCAAATAGGACGAAACGCGC    0.8

Q) Please report the recorded Fold change in RNA expression between the ON state and the OFF state for RA341 (nucleic acid, expressed or natural sequence) DNA: GCGGAATACCAGCATCGTCTTGATGCCCTTGGAAGTCCGCGTCCTGGATTCGCGGAAACGCGTACATCCAGCTGACGAGTCCCAAATAGGACGAAACGCGC .
A) 0.9

Q) Please report the recorded Fold change in RNA expression between the ON state and the OFF state for RA373 (nucleic acid, expressed or natural sequence) DNA: GCGCGTCCTGGATTCGCGGAAACGCGTACATCCAGCTGACGAGTCCCAAGTGATACCAGCATCGTCTTGATGCCCTTGGCAGCACTAATAGGACGAAACGCGC .
A) 0.8

Q) Please report the recorded Fold change in RNA expression between the ON state and the OFF state for RA429 (nucleic acid, expressed or natural sequence) DNA: GCGCGTCCTGGATTCGCGGGGAATACCAGCATCGTCTTGATGCCCTTGGAAGTCCAAACGCGTACATCCAGCTGACGAGTCCCAAATAGGACGAAACGCGC .
A) 0.6

Q) Please report the recorded Fold change in RNA expression between the ON state and the OFF state for RA365 (nucleic acid, expressed or natural sequence) DNA: GCGAGAATACCAGCATCGTCTTGATGCCCTTGGAAGTCTCGTCCTGGATTCGCGGAAACGCGTACATCCAGCTGACGAGTCCCAAATAGGACGAAACGCGC .
A) 0.8

Q) Please report the recorded Fold change in RNA expression between the ON state and the OFF state for RA339 (nucleic acid, expressed or natural sequence) DNA: GCGCGTCCTGGATTGGAATACCAGCATCGTCTTGATGCCCTTGGAAGTCCCGCGGAAACGCGTACATCCAGCTGACGAGTCCCAAATAGGACGAAACGCGC .
A) 0.9
